Parameter selectivity ratio at 2 days: see the listing below.
System: NL4-3 virus (HIV, wild-type)
Measurement protocol: Anti-HIV activity assay (TZM-bl cell model), NL4-3 wild-type
Format: cell-based
Setup conditions: human, TZM-bl cells infected with HIV-1 NL4-3 virus; CC50 (TZM-bl) / EC50 (NL4-3); read-out: SI, selective index, ratio of toxic CC50 value to active EC50 value

Inquiry: Provide measured selectivity ratio at 2 days value, entry: Cc1cc(CCC#N)cc(C)c1Oc1cc(Nc2ccc(C#N)cc2)c(N)cc1C(=O)N(C)C [Compound 42]
Reply text: > 810

Inquiry: Answer with reported selectivity ratio at 2 days of Cc1cc(CCC#N)cc(C)c1Oc1cc(Nc2ccc(C#N)cc2)c(N)cc1C(=O)NC1CC1 [Compound 43]
Reply text: > 3760

---

Item-by-item account of selectivity ratio at 2 days
Tested on: NL4-3 virus (HIV, wild-type)
Measurement protocol: Anti-HIV activity assay (TZM-bl cell model), NL4-3 wild-type
Format: cell-based
Setup conditions: human, TZM-bl cells infected with HIV-1 NL4-3 virus; CC50 (TZM-bl) / EC50 (NL4-3); read-out: SI, selective index, ratio of toxic CC50 value to active EC50 value

Previously resolved entries follow.
compound=Cc1cc(CCC#N)cc(C)c1Oc1cc(Nc2ccc(C#N)cc2)c(N)cc1C(F)(F)F property_name="selectivity ratio at 2 days" reported_measurement="> 6280"
compound=CNC(=O)c1cc(N)c(Nc2ccc(C#N)cc2)cc1Oc1c(C)cc(CCC#N)cc1C property_name="selectivity ratio at 2 days" reported_measurement="> 3330"
compound=Cc1cc(CCC#N)cc(C)c1Oc1cc(Nc2ccc(C#N)cc2)c(N)cc1COC(=O)C1CC1 property_name="selectivity ratio at 2 days" reported_measurement="> 3070"
compound=Cc1cc(CCC#N)cc(C)c1Oc1cc(Nc2ccc(C#N)cc2)c(N)cc1C(=O)NN property_name="selectivity ratio at 2 days" reported_measurement="> 1190"
compound=N#CCCc1cc(Br)c(Oc2ccc(N)c(Nc3ccc(C#N)cc3)n2)c(Br)c1 property_name="selectivity ratio at 2 days" reported_measurement=24900
compound="COc1cc(CCC#N)cc(Br)c1Oc1ccc(N)c(Nc2ccc(C#N)cc2)n1 [Compound 26A]" property_name="selectivity ratio at 2 days" reported_measurement=6560

Let us move to another entry and its selectivity ratio at 2 days.
Inquiry: Output measured selectivity ratio at 2 days for this item: N#Cc1ccc(Nc2nc(Oc3c(F)cc(CCCO)cc3F)ccc2N)cc1
Reply text: > 525

---

Measurement protocol: TZM-bl cytotoxicity assay (XTT)
Format: cell-based
Setup conditions: human, TZM-bl cells, read-out: CC50, concentration effective to inhibit the growth of half of cells
Procedure: The assay was carried out by reference to the document (Dang, Z, et al. J. Med. Chem. 2009, 52, 7887-7891). In particular, in a 96-well cell culture plate, solutions of Compounds 1-57 at different concentrations (100 μl) were mixed with an equivalent volume of TZM-bl cells (from National Institutes of Health (NIH)) (5×10^5/mL), and were incubated at 37° C. for 4 d. 50 μl of freshly prepared XTT solution (1 mg/mL) containing 0.02 μM PMS was added. Optical density at 450 nm was measured 4 h later.
Property name: CC50 at 4 d

Known CC50 at 4 d results, listed for orientation:
sample_smiles=Cc1cc(CCC#N)cc(C)c1Oc1cc(Nc2ccc(C#N)cc2)c(N)cc1CO reported_measurement="> 23.8 µM"
sample_smiles=Cc1cc(CCC#N)cc(C)c1Oc1cc(Nc2ccc(C#N)cc2)c(N)cc1C(N)=O reported_measurement="> 9.4 µM"

Inquiry: # return recorded CC50 at 4 d for entry Cc1cc(CCC#N)cc(C)c1Oc1cc(Nc2ccc(C#N)cc2)c(N)cc1C(=O)NC1CC1
Reply text: > 5 µM

Inquiry: Read the entry N#CCCc1cc(Br)c(Oc2ccc(N)c(Nc3ccc(C#N)cc3)n2)c(Br)c1 and write its reported CC50 at 4 d.
Reply text: 8.21 µM

---

Recorded EC50 values for a group of molecules are listed next.
System: K101E drug-resistant virus
Measurement protocol: Activity against drug-resistant virus K101E
Assay type: cell-based, HIV
Setup conditions: Human immunodeficiency virus 1, read-out: Drug-resistant viruses EC50, K101E
Returns: string containing the numeric result and its unit.

Worked examples, 3 molecules total:
molecule=COC(=O)c1cc(N)c(Nc2ccc(C#N)cc2)cc1Oc1c(C)cc(CCC#N)cc1C property_name=EC50 reported_measurement="14 nM"
molecule=Cc1cc(CCC#N)cc(C)c1Oc1cc(Nc2ccc(C#N)cc2)c(N)cc1CNC1CC1 property_name=EC50 reported_measurement="27.3 nM"
molecule=CNC(=O)c1cc(N)c(Nc2ccc(C#N)cc2)cc1Oc1c(C)cc(CCC#N)cc1C property_name=EC50 reported_measurement="14 nM"

Inquiry: Please look at this molecule and report its EC50: COc1cc(CCC#N)cc(Br)c1Oc1ccc(N)c(Nc2ccc(C#N)cc2)n1 [Compound 26A]
Reply text: 3.89 nM

Inquiry: Specify measured EC50 for N#CCCc1cc(Br)c(Oc2ccc(N)c(Nc3ccc(C#N)cc3)n2)c(Br)c1 .
Reply text: 7.63 nM

Inquiry: Give reported EC50 value for Cc1cc(CCC#N)cc(C)c1Oc1cc(Nc2ccc(C#N)cc2)c(N)cc1C(F)(F)F
Reply text: 47.6 nM

Inquiry: Tell me measured EC50 for Cc1cc(CCC#N)cc(C)c1Oc1cc(Nc2ccc(C#N)cc2)c(N)cc1CO please.
Reply text: 3.4 nM

---

Measurement protocol: Incubation experiment of human liver microsomes
Format: in vitro ADME
Property name: HLM t1/2 (min)
Write the number in min without appending the unit.

sample_smiles=Cc1cc(CCC#N)cc(C)c1Oc1cc(Nc2ccc(C#N)cc2)c(N)cc1CO property_name="HLM t1/2" reported_measurement=20.9
sample_smiles=Cc1cc(CCC#N)cc(C)c1Oc1cc(Nc2ccc(C#N)cc2)c(N)cc1C(F)(F)F property_name="HLM t1/2" reported_measurement=55.7
sample_smiles=COC(=O)c1cc(N)c(Nc2ccc(C#N)cc2)cc1Oc1c(C)cc(CCC#N)cc1C property_name="HLM t1/2" reported_measurement=186

Inquiry: Quickly give me recorded HLM t1/2 for CNC(=O)c1cc(N)c(Nc2ccc(C#N)cc2)cc1Oc1c(C)cc(CCC#N)cc1C
Reply text: 55.7

---

Property name: melting point

sample_smiles=Cc1cc(/C=C/C#N)cc(C)c1Oc1cc(Nc2ccc(C#N)cc2)c([N+](=O)[O-])cc1S(N)(=O)=O reported_measurement="198 to 200 °C"

Inquiry: Give reported melting point value for Cc1cc(CCC#N)cc(C)c1Oc1cc(Nc2ccc(C#N)cc2)c(N)cc1N
Reply text: 118 to 120 °C

Inquiry: Output melting point of Cc1cc(/C=C/C#N)cc(C)c1Oc1cc(Nc2ccc(C#N)cc2)c([N+](=O)[O-])cc1C(N)=O
Reply text: 278 to 280 °C

Inquiry: Item Cc1cc(/C=C/C#N)cc(C)c1Oc1cc(Nc2ccc(C#N)cc2)c([N+](=O)[O-])cc1C(=O)O : provide melting point
Reply text: 262 to 265 °C

Inquiry: Provide one value: measured melting point of CC(=O)/C=C/c1cc(F)c(Oc2ccc([N+](=O)[O-])c(Nc3ccc(C#N)cc3)n2)c(F)c1
Reply text: 275 to 277 °C

Inquiry: Identify measured melting point corresponding to CNC(=O)c1cc([N+](=O)[O-])c(Nc2ccc(C#N)cc2)cc1Oc1c(C)cc(/C=C/C#N)cc1C
Reply text: 218 to 220 °C

Inquiry: Report measured melting point; entry is Cc1cc(/C=C/C#N)cc(C)c1Oc1cc(Nc2ccc(C#N)cc2)c([N+](=O)[O-])cc1C(F)(F)F
Reply text: 248 to 250 °C

Inquiry: Return melting point for the following compound: COC(=O)c1cc([N+](=O)[O-])c(Nc2ccc(C#N)cc2)cc1Oc1c(C)cc(/C=C/C#N)cc1C
Reply text: 260 to 262 °C

Inquiry: Return melting point (reported value) for this compound: Cc1cc(/C=C/C#N)cc(C)c1Oc1cc(Nc2ccc(C#N)cc2)c([N+](=O)[O-])cc1CO
Reply text: 232 to 234 °C

Inquiry: Identify the reported melting point for the following entry. Cc1cc(CO)cc(C)c1Oc1cc(Nc2ccc(C#N)cc2)c([N+](=O)[O-])cc1CO
Reply text: 216 to 218 °C

---

Measurement protocol: TZM-bl cytotoxicity assay (XTT)
Type: cell-based
Setup conditions: human, TZM-bl cells, read-out: CC50, concentration effective to inhibit the growth of half of cells
Catalogue of CC50 at 4 d values

Examples from the recorded data:
compound=CC(=O)CCc1cc(F)c(Oc2ccc(N)c(Nc3ccc(C#N)cc3)n2)c(F)c1 property_name="CC50 at 4 d" reported_measurement="> 9.8 µM"
compound=COCc1cc(N)c(Nc2ccc(C#N)cc2)cc1Oc1c(C)cc(CCC#N)cc1C property_name="CC50 at 4 d" reported_measurement="> 5 µM"
compound=CNC(=O)c1cc(N)c(Nc2ccc(C#N)cc2)cc1Oc1c(C)cc(CCC#N)cc1C property_name="CC50 at 4 d" reported_measurement="> 9.1 µM"
compound="COc1cc(CCC#N)cc(Br)c1Oc1ccc(N)c(Nc2ccc(C#N)cc2)n1 [Compound 26A]" property_name="CC50 at 4 d" reported_measurement="21 µM"
compound=COC(=O)CCc1cc(F)c(Oc2ccc(N)c(Nc3ccc(C#N)cc3)n2)c(F)c1 property_name="CC50 at 4 d" reported_measurement="> 15.3 µM"
compound=COC(=O)c1cc(N)c(Nc2ccc(C#N)cc2)cc1Oc1c(C)cc(CCC#N)cc1C property_name="CC50 at 4 d" reported_measurement="> 22.7 µM"
compound=N#Cc1ccc(Nc2nc(Oc3c(F)cc(CCCO)cc3F)ccc2N)cc1 property_name="CC50 at 4 d" reported_measurement="> 25.2 µM"

Inquiry: Using the record for Cc1cc(CCC#N)cc(C)c1Oc1cc(Nc2ccc(C#N)cc2)c(N)cc1C(=O)N(C)C , state its measured CC50 at 4 d.
Reply text: > 5 µM

// data source = patent US9340492B2
